SYSTEM TESTED: homomeric nAChRs containing the alpha7 subunit (α7) (Rattus norvegicus (Rat))
Sequence (Q05941 23-502 limits assumed): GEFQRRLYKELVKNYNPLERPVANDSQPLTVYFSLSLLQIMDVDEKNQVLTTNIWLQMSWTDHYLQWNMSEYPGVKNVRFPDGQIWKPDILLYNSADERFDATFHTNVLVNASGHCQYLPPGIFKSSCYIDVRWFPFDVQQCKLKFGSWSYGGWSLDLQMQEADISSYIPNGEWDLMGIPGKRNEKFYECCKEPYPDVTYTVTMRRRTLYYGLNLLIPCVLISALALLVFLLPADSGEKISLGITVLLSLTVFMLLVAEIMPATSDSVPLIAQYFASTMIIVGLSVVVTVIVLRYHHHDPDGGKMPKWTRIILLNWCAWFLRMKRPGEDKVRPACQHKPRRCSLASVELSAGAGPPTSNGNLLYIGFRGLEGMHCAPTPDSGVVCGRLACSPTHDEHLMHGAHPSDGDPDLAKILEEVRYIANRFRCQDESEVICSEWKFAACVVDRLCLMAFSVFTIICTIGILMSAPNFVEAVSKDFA
ASSAY TEXT: biochemical
Format: binding
pKi: −log10 of the molar value.
Item-by-item account of pKi
READOUT TYPE: pKi

1. c1ncc(-c2cncc(C3CC4CCC3N4)c2)cn1 (stereo not drawn) = 7.49
2. Clc1ncc(C2CC3CCC2N3)cc1-c1cncnc1 (stereo not drawn) = 6.77
3. Fc1ncc(C2CC3CCC2N3)cc1-c1cncnc1 (stereo not drawn) = 5.72

----------
Item-by-item account of melting point
Counter-ions that a name gives are not always drawn.
READOUT TYPE: melting point

1. Clc1ncc(C2CC3CCC2N3)cc1-c1cncnc1 (centres unmarked) (as salt: fumarate) [Cl] = 199 to 203 °C
2. c1ncc(-c2cncc(C3CC4CCC3N4)c2)cn1 (centres unmarked) (as salt: fumarate) [H] = 172 to 176 °C
3. Fc1ncc(C2CC3CCC2N3)cc1-c1cncnc1 (centres unmarked) (as salt: fumarate) = 160 to 163 °C
4. COc1cc(-c2cncc(C3CC4CCC3N4)c2)ccn1 (centres unmarked) (as salt: fumarate) = 160 to 164 °C
5. Fc1cc(-c2cncc(C3CC4CCC3N4)c2)ccn1 (centres unmarked) (as salt: fumarate) = 210 to 214 °C
